# Tested Target: HLA A2.1 molecule (human)
# Procedure Text: T2 cells, flow cytometry (BB7.2); reference HIVpol 589
Recorded Metric: RA (relative affinity)

• VLYRYGSFSV (modifications not checked) [gp100 476] = 10
• ILATFLAWL (modifications not checked) [mp 530] = 0.8
• YLIHHNTHL (modifications not checked) [HER-2/neu 466Y1] = 1.4
• YLQVNSLQTV (modifications not checked) [mhp 988Y1] = 2.1
• FLFWLMDTYV (modifications not checked) [mp 534] = 0.2
• VLVKSPNHV (modifications not checked) [HER-2/neu 851] = 24
• QLLRSFFHFL (modifications not checked) [mp 545] = 1.8
